Data origin, for the record: paper PMC5531278

- experimentNotes: in vitro
- statedConditions: human, microsomes
reportedProperty: microsomal CLint at 0.1 μM

Give microsomal CLint at 0.1 μM for the following compound: O=C(O)c1cc2ccc(N(Cc3ccccc3)Cc3ccccc3)cc2oc1=O < 116 µL/min/mg

----------
- experimentNotes: Bidirectional Caco-2 cell monolayer permeability
- statedConditions: human, Caco-2, pH 6.5
reportedProperty: Papp A→B at 10 µM (×10⁻⁶ cm/s)
Please reply with the bare figure in ×10⁻⁶ cm/s and do not write the unit itself.

Return value of Papp A→B at 10 µM for input O=C(O)c1cc2ccc(N(Cc3ccccc3)Cc3ccccc3)cc2oc1=O , no commentary. 32

----------
- experimentNotes: in vitro
- statedConditions: mouse, microsomes, Half-life Trial 1
reportedProperty: half-life at 0.1 μM (h)
Enter your answer as a number in h; do not include the unit.

Tell me measured half-life at 0.1 μM for O=C(O)c1cc2ccc(N(Cc3ccccc3)Cc3ccccc3)cc2oc1=O please. 1.51

----------
- experimentNotes: in vitro
- statedConditions: mouse, liver microsomes, Half-life Trial 2, mouse liver microsomes, 0.1 μM
reportedProperty: half-life at 0.1 μM (min)
All answers are understood in min, so give the number only.

Consider the molecule CC(C)NCC(O)COc1cccc2ccccc12 (stereo not shown) . State its measured half-life at 0.1 μM. 9.5

----------
- experimentNotes: Bidirectional Caco-2 cell monolayer permeability
- statedConditions: human, Caco-2, pH 6.5
reportedProperty: Papp B→A at 10 µM (×10⁻⁶ cm/s)
// units = ×10⁻⁶ cm/s; emit number, no label

Provide Papp B→A at 10 µM value for the following compound: O=C(O)c1cc2ccc(N(Cc3ccccc3)Cc3ccccc3)cc2oc1=O [4a] 6.4
